Assay: chemical genetic growth profiling, strain panel (AID 1159580);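 further: tested at 20 µM; growth read once vehicle control cultures reached saturation at 30 °C; 1 = growth at the plate median or of vehicle wells; lower values mean less growth of the strain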
Details: S. cerevisiae deletion strains, growth OD, locus YMR263W, strain SAP30, stronger effect = lower value
The campaign covered roughly 5,500 compounds. About 2,000 (36%) were called active. Roughly 18% stayed inconclusive and do not appear here. This is one part of the list.
Listed here: items and their measured normalized growth.
recorded.metric: normalized growth

{"molecule": "Cc1cc(=O)c2c(O)cc(O)c(C)c2o1", "data.value": 0.965}
{"molecule": "COc1ccc(C[C@H]2NC[C@H](O)[C@H]2OC(C)=O)cc1", "data.value": 0.852}
{"molecule": "COC(=O)c1c(Cl)c(Cl)c(C(=O)OC)c(Cl)c1Cl", "data.value": 0.987}
{"molecule": "CCC1(c2ccc(N)cc2)CCC(=O)NC1=O (configuration not stated)", "data.value": 1}
{"molecule": "CC1(C)C2CC[C@]3(C)C(C(=O)C=C4[C@H]5C[C@@](C)(C(=O)O)CC[C@]5(C)CC[C@]43C)[C@@]2(C)CC[C@@H]1O (some centres not stated)", "data.value": 1.03}
{"molecule": "O=C(OCCN1CCCCC1)c1c[nH]c2ccccc12", "data.value": 0.999}
{"molecule": "Cc1cc(C)c(NC(=S)NCCCN2CCOCC2)c(C)c1", "data.value": 1.03}
{"molecule": "COC(=O)c1c(C)[nH]c(C)c1C(C)=O", "data.value": 1}
{"molecule": "CCCc1c(OCCCOc2ccc(OCC(=O)O)cc2)ccc(C(C)=O)c1O", "data.value": 1.01}
{"molecule": "CCCCOc1cc(C(=O)O)ccc1OC", "data.value": 0.977}
{"molecule": "CCCCOc1ccc(C(=O)CCC(=O)O)cc1", "data.value": 0.969}
{"molecule": "O=C(O)c1cc(=O)c2cc(Cl)ccc2[nH]1", "data.value": 1}
